Hello, the source for this data is patent US6875761B2, in case you need it.

Where a name gives a salt, the structure may show the parent alone.
The following are reported pKi results, target or system UniProtKB P14842.
Sequence (P14842 whole entry): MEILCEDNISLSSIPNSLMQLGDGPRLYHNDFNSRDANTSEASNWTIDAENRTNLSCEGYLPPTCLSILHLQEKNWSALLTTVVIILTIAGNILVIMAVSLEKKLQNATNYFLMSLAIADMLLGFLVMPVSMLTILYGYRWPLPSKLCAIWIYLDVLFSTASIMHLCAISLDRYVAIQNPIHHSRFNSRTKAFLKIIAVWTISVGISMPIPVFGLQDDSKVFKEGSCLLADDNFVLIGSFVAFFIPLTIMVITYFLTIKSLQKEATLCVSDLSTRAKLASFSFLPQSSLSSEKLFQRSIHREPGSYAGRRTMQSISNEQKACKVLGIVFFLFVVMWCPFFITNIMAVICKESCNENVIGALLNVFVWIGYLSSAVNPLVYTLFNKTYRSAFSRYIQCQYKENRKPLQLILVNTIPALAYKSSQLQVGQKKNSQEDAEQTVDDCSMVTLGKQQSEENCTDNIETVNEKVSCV
Value format note: pKi is -log10 of concentration (mol/L); just state the number.

For orientation, consider the following solved cases.
molecule="CCN1CCN(c2nc(CCCCOCc3ccccc3)cc3ccccc23)CC1 [Example 1, Dihydrochloride]" measured_parameter=pKi recorded_result=7.44
molecule="CCN1CCN(c2nc(-c3cc(F)c(OCCF)c(F)c3)cc3ccccc23)CC1 [Example 371, dihydrochloride]" measured_parameter=pKi recorded_result=8.37
molecule="CCN1CCN(c2nc(-c3ccc(CC(C)O)cc3)cc3ccccc23)CC1 (stereo not shown) [Example 376, oxalate]" measured_parameter=pKi recorded_result=8.20
molecule="CCN1CCN(c2nc(-c3ccc(N4CCN(C(C)=O)CC4)cc3)cc3ccccc23)CC1 [Example 100, Trihydrochloride]" measured_parameter=pKi recorded_result=8.25
molecule="CCN1CCN(c2nc(-c3ccc(CC(C)CO)cc3)cc3ccccc23)CC1 (stereo not shown) [Example 386, Oxalate]" measured_parameter=pKi recorded_result=8.62
molecule="CCN1CCN(c2nc(-c3ccc(OCCO)cc3)cc3ccsc23)CC1 [Example 259, Hydrochloride]" measured_parameter=pKi recorded_result=7.72
molecule="CCN1CCN(c2nc(-c3ccc(S(=O)(=O)N4CCCC4)cc3)cc3ccccc23)CC1 [Example 356, dihydrochloride]" measured_parameter=pKi recorded_result=7.62
molecule="CCNS(=O)(=O)c1ccc(-c2cc3ccccc3c(N3CCN(CC)CC3)n2)cc1 [Example 357, dihydrochloride]" measured_parameter=pKi recorded_result=9.24

Can you share its pKi? I mean this molecule: CCN1CCN(c2nc(-c3ccc(CCC(C)O)cc3)cc3ccoc23)CC1 (stereo not shown) [Example 300, dihydrochloride]
8.04

Can you share its pKi? I mean this molecule: CCN1CCN(c2nc(-c3ccc(OCCO)c(C)c3)cc3ccccc23)CC1 [Example 40, hydrochloride]
8.51

Can you share its pKi? I mean this molecule: CCN1CCN(c2nc(/C=C/c3cccc(N4CCOCC4)c3)cc3ccccc23)CC1 [Example 204, Oxalate]
7.73
